The measured values listed here are drawn from paper PMC8787096.

Experiment: in vivo
Conditions: both, SD, rat, iv, 0.1 mg/kg
Residues, ends and D or L forms follow the SMILES beside them.
MEASURED_QUANTITY: clearance (mL/min/kg)

COMPOUND	UOM	MEASURED_NUMBER
CC(=O)N[C@H](C(=O)N[C@@H](CO)C(=O)N[C@@H](CCCNC(=N)N)C(=O)N[C@@H](CCCNC(=N)N)C(=O)N[C@@H](CCCNC(=N)N)C(N)=O)C(C)C [CN-105, Ac-VSRRR-NH2] (Ac-VSRRR-NH2)	mL/min/kg	13.2

----------
Test: in vivo
Conditions: both, SD, rat, iv, 3 mg/kg
Residues, ends and D or L forms follow the SMILES beside them.
MEASURED_QUANTITY: clearance (mL/min/kg)

MOLECULE	MEASURED_QUANTITY	MEASURED_NUMBER
CC(=O)N[C@H](C(=O)N[C@@H](CO)C(=O)N[C@@H](CCCNC(=N)N)C(=O)N[C@@H](CCCNC(=N)N)C(=O)N[C@@H](CCCNC(=N)N)C(N)=O)C(C)C [CN-105, Ac-VSRRR-NH2] (Ac-VSRRR-NH2)	clearance	8.48
